# Read-out: Ezrin (EZR), EZR (gene 7430)
# protocol notes: LTEA_HepaRG_EZR: Life Technologies and Expression Analysis (LTEA) Assay for Ezrin (EZR) using HepaRG (AID 2283491)
# assay setup: mRNA level, 48 h; actives raise or lower the signal
# Procedure: It is a marker of Cellular remodeling.Data from the assay component LTEA_HepaRG_EZR was analyzed into 1 endpoint. This assay endpoint, LTEA_HepaRG_EZR, was analyzed with bidirectional fitting relative to DMSO as the negative control and baseline of activity. Using a type of inducible reporter, measures of mRNA induction for gain or loss-of-signal activity can be used to understand regulation of transcription factor activity. […]
Activity calls are given as the source filed them. The calls were made as follows: active = hit-call score of the fitted dose curve at least 0.9, where 1 is the maximum; inactive = score below 0.9.
Hi! Could you answer with just one of these? active, inactive

{"compound": "O=Cc1ccccc1C=O", "group label": "inactive"}
{"compound": "CCc1cc(C2=C(C(=O)O)N(c3ccccc3C(F)(F)F)S(=O)(=O)c3ccccc32)cc2c1OCO2", "group label": "inactive"}
{"compound": "CS(=O)(=O)c1ccc([C@@H](C[C@H]2CCC(=O)C2)C(=O)Nc2cnccn2)cc1Cl", "group label": "inactive"}
{"compound": "O=C1O[C@H]([C@H](O)CO)C(O)=C1O", "group label": "inactive"}
{"compound": "Cc1cc(Cc2ccc(N)c(C)c2)ccc1N", "group label": "inactive"}
{"compound": "CCN(CC)CCOc1ccc(C(=C(Cl)c2ccccc2)c2ccccc2)cc1", "group label": "active"}
{"compound": "O=[Si]=O", "group label": "inactive"}
{"compound": "CC(C)(O)c1ccc(CNC(=O)c2cccnc2Oc2ccc(F)cc2)cc1", "group label": "inactive"}
{"compound": "C/C=C/c1ccc(OC)cc1", "group label": "inactive"}
{"compound": "CCCCc1nc2cccnc2n1Cc1ccc(-c2ccccc2-c2nnn[nH]2)cc1", "group label": "inactive"}

INPUT: Call for entry Oc1ccc(O)cc1 :
OUTPUT: inactive

INPUT: Call for entry CC1=C(C)S(=O)(=O)CCS1(=O)=O :
OUTPUT: inactive

INPUT: Call for entry CCCCCCC(CCCCCCCCCCC(=O)OCC(COC(C)=O)OC(C)=O)OC(C)=O (centres undefined) :
OUTPUT: inactive

INPUT: Call for entry C/C=C/C=C/C(=O)O :
OUTPUT: inactive

====

# Read-out: Intercellular Adhesion Molecule 1 (ICAM1), ICAM1 (gene 3383)
# protocol notes: BSK_3C_ICAM1: BioMAP Diversity Plus: 3C Assay for Intercellular Adhesion Molecule 1 (ICAM1) Biomarker Activity (AID 2283003)
# assay setup: primary human endothelial cells (HUVEC); actives raise or lower the signal
Calls of active or inactive are those of the source. How the source made its calls: active means hit-call score of the fitted dose curve at least 0.9, where 1 is the maximum; inactive means score below 0.9.
Hi! Could you answer with just one of these? label 1 (active), label 0 (inactive)

Past entries and their recorded results:
{"compound": "CCc1nc(N)nc(N)c1-c1ccc(Cl)cc1", "group label": "label 0"}
{"compound": "CC(COCC(C)OC(=O)c1ccccc1)OC(=O)c1ccccc1 (stereo not drawn)", "group label": "label 0"}
{"compound": "CC(N)=O", "group label": "label 0"}
{"compound": "CCCCC(CC)COP(=O)(OCC(CC)CCCC)OCC(CC)CCCC (stereo not drawn)", "group label": "label 0"}
{"compound": "CC(=O)OC1CC(C)OC(C)O1 (stereo not drawn)", "group label": "label 0"}
{"compound": "O=C(O)CC(O)(CC(=O)O)C(=O)O", "group label": "label 0"}

INPUT: Call for entry CSc1ccc(Oc2ccc(S(N)(=O)=O)cc2CN(C)C)cc1C :
OUTPUT: label 0

INPUT: Call for entry COC(=O)CCC(=O)OC :
OUTPUT: label 0

INPUT: Call for entry O=C(O)c1cccnc1 :
OUTPUT: label 0

INPUT: Call for entry CO[C@@H]1COCC[C@@H]1N[C@@H]1CC[C@@](C(=O)N2CCc3ncc(C(F)(F)F)cc3C2)(C(C)C)C1 :
OUTPUT: label 0

INPUT: Call for entry Cc1cc(SC2=C(O)C[C@@](CCc3ccc(N)cc3)(C(C)C)OC2=O)c(C(C)(C)C)cc1CO :
OUTPUT: label 0

INPUT: Call for entry CC(=O)O[C@]1(C(C)=O)CC[C@H]2[C@@H]3C=C(Cl)C4=CC(=O)[C@@H]5C[C@@H]5[C@]4(C)[C@H]3CC[C@@]21C :
OUTPUT: label 0

INPUT: Call for entry Cc1ccc(C(C)(C)C)c(O)c1 :
OUTPUT: label 1

====

# Read-out: Vascular cell adhesion molecule 1 (VCAM1), VCAM1 (gene 7412)
# protocol notes: BSK_4H_VCAM1: BioMAP Diversity Plus: 4H Assay for Vascular cell adhesion molecule 1 (VCAM1) Biomarker Activity (AID 2283033)
# assay setup: primary human endothelial cells (HUVEC); actives raise or lower the signal
Calls of active or inactive are those of the source. The calls were made as follows: active = hit-call score of the fitted dose curve at least 0.9, where 1 is the maximum; inactive = score below 0.9.
property: AC50

Solved cases below.
{"compound": "CCOCCOCCO", "AC50": "inactive"}
{"compound": "CC(=O)[C@@]1(O)CC[C@H]2[C@@H]3CCC4=CC(=O)CC[C@]4(C)[C@H]3CC[C@@]21C", "AC50": "inactive"}
{"compound": "CC(=O)S[C@H](C(=O)N[C@H]1Cc2ccccc2[C@H]2CCC[C@@H](C(=O)O)N2C1=O)C(C)C", "AC50": "inactive"}
{"compound": "Cc1ccc(C(C)(C)C)c(O)c1", "AC50": "inactive"}
{"compound": "COC(=O)CCCC(=O)OC", "AC50": "inactive"}
{"compound": "NC1CCCCC1", "AC50": "inactive"}
{"compound": "CC(C)c1cccc(C(C)C)c1", "AC50": "inactive"}
{"compound": "CN(C)CCCN(C)CCCN(C)C", "AC50": "inactive"}
{"compound": "Nc1nc(Cl)nc2c1ncn2[C@H]1C[C@H](O)[C@@H](CO)O1", "AC50": "inactive"}
{"compound": "CC(C)(O)c1ccc(CNC(=O)c2cccnc2Oc2ccc(F)cc2)cc1", "AC50": "inactive"}

Looking up CCc1cc(C2=C(C(=O)O)N(c3ccccc3C(F)(F)F)S(=O)(=O)c3ccccc32)cc2c1OCO2 , I found its AC50 recorded as inactive

Looking up CC(C)COC(=O)CCCCC(=O)OCC(C)C , I found its AC50 recorded as inactive

Looking up OCC(O)CO , I found its AC50 recorded as inactive

Looking up CCCCCCC(C=O)=Cc1ccccc1 , I found its AC50 recorded as 33.5 µM (active)

Looking up CCCCC(CC)COP(=O)(OCC(CC)CCCC)OCC(CC)CCCC (configuration not stated) , I found its AC50 recorded as 6.21 µM (active)

====

# protocol notes: BSK_BE3C_SRB: Viability Assessment in the BioMAP Diversity Plus: BE3C Assay (AID 2283028);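 also: measured 24 h after chemical dosing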
# assay setup: primary human bronchial epithelial cells
Calls of active or inactive are those of the source. The calls were made as follows: active = hit-call score of the fitted dose curve at least 0.9, where 1 is the maximum; inactive = score below 0.9.
Hi! Could you answer with just one of these? active, inactive

Past entries and their recorded results:
{"smiles representation": "CCCCCCCCCCCCCCOS(=O)(=O)O", "group label": "active"}
{"smiles representation": "Cc1ccc(-c2cc(C(F)(F)F)nn2-c2ccc(S(N)(=O)=O)cc2)cc1", "group label": "active"}
{"smiles representation": "COc1ccc(OC(F)(F)F)cc1CN[C@H]1CCCN[C@H]1c1ccccc1", "group label": "inactive"}
{"smiles representation": "CC(C)(C)c1ccccc1", "group label": "inactive"}
{"smiles representation": "CCCCCCCCCCCCCCCCO", "group label": "inactive"}

Below: the item to evaluate.
INPUT: Call for entry C=CCc1ccc(OC)c(OC)c1 :
OUTPUT: inactive

====

# target under test: Myc proto-oncogene protein (Homo sapiens)
# protocol notes: ATG_Myc_CIS: Attagene CIS-FACTORIAL HepG2 Assay for human Myelocytomatosis (Myc) Proto-Oncogene Transcription Factor (AID 2282990)
# assay setup: HepG2, Attagene cis-reporter transcription factor activity; actives raise or lower the signal
Activity calls are given as the source filed them. The calls were made as follows: active = hit-call score of the fitted dose curve at least 0.9, where 1 is the maximum; inactive = score below 0.9.
Hi! Could you answer with just one of these? active, inactive

Past entries and their recorded results:
{"molecule": "C=CCCCCCCCCCCCC", "group label": "inactive"}
{"molecule": "O=C(N[C@@H](c1ccccc1)[C@@H]1CCCCN1)c1cccc(C(F)(F)F)c1Cl", "group label": "active"}
{"molecule": "CCCCCCCCCC[N+](C)(C)[O-]", "group label": "inactive"}
{"molecule": "Oc1ccc(O)cc1", "group label": "inactive"}
{"molecule": "c1ccc2occc2c1", "group label": "inactive"}

INPUT: Call for entry C=CCc1ccc(OC)c(OC)c1 :
OUTPUT: inactive

INPUT: Call for entry CC(C)NCC(O)c1ccc(O)c(O)c1 (stereo unspecified) :
OUTPUT: inactive

INPUT: Call for entry CCCCCCC(CCCCCCCCCCC(=O)OCC(COC(C)=O)OC(C)=O)OC(C)=O (stereo unspecified) :
OUTPUT: inactive

INPUT: Call for entry NC(=Nc1ccccc1)Nc1ccccc1 :
OUTPUT: inactive

INPUT: Call for entry CN(C)CCCN1c2ccccc2Sc2ccc(Cl)cc21 :
OUTPUT: inactive

INPUT: Call for entry CCCCC(CC)COC(=O)CCCCCCCC(=O)OCC(CC)CCCC (stereo unspecified) :
OUTPUT: inactive

From: PubChem BioAssay (EPA / NIEHS)
